# Test system: PfIESI-1 RRM domain (Plasmodium falciparum ortholog aa 875-1232, GST fusion)
# protocol_details: RBNS R-value (6-mer enrichment in protein-bound RNA vs input library) (ratio); higher = stronger binding preference
# measurement_setup: protein concentration: 500 nM
The full ranking holds about 4,100 sequences; the median of “RBNS R-value (6-mer enrichment in protein-bound RNA vs input library)” is about 0.99, and the highest 2% start at about 1.4. The full list was thinned out, with the highest values kept by preference.
# maps each entry to its RBNS R-value
Quick one: just the number, no unit, thanks!

Illustrative cases are given below, each with its answer.
[
  {
    "sequence_record": "UACCUA",
    "endpoint_result": 0.814
  },
  {
    "sequence_record": "GCACUA",
    "endpoint_result": 0.86
  },
  {
    "sequence_record": "CUCGUG",
    "endpoint_result": 0.913
  }
]

Challenge: Quick one: give measured RBNS R-value for UACCGG
Response given: 0.914

Challenge: Could you please provide reported RBNS R-value for GCGAUC ? Thanks!
Response given: 0.948

Challenge: Report RBNS R-value, nothing else, for this sequence: UUGUCA
Response given: 0.887

Challenge: Give RBNS R-value for the following sequence: CACCUG
Response given: 1.3

Challenge: Look up and report measured RBNS R-value for this entry: AGAUAU
Response given: 1.04

Challenge: Item UAUGGG : provide RBNS R-value
Response given: 0.916

Challenge: Using known records, supply RBNS R-value for CAUGUG
Response given: 0.964

Challenge: Give me measured RBNS R-value, please, for this sequence: GCCAUA
Response given: 0.859

Challenge: Identify measured RBNS R-value associated with GCACCC
Response given: 1.26

Challenge: State its RBNS R-value for this sequence: ACACCG
Response given: 1.12

Challenge: Tell us which RBNS R-value value is on record for GGUGAG
Response given: 1.02

Challenge: Entry UCUGAC needs its RBNS R-value filled in; supply it.
Response given: 0.998

Challenge: Name the recorded RBNS R-value of the item AUUCGU in your answer.
Response given: 0.913

Challenge: Consider the sequence AAAUAA and give its recorded RBNS R-value.
Response given: 0.993

Challenge: Provide measured RBNS R-value value, entry: AUGAUA
Response given: 2.08

* * *

Below, each of the sequences is paired with its reported RBNS R-value value.
# System: PfIESI-1 RRM domain (Plasmodium falciparum ortholog aa 875-1232, GST fusion)
# protocol_details: RBNS R-value (6-mer enrichment in protein-bound RNA vs input library) (ratio); higher = stronger binding preference; the methods of the paper give 50 / 100 / 500 nM protein instead
# measurement_setup: protein concentration: 250 nM
Whole data set: some 4,100 sequences, median “RBNS R-value (6-mer enrichment in protein-bound RNA vs input library)” near 0.99, cut for the highest 2% near 1.4. The sample as a whole holds a higher share of the highest values than the screen did.

Here is how some sequences turned out for RBNS R-value.
[
  {
    "sequence_record": "GCGAUG",
    "system_name": "PfIESI-1 RRM domain (Plasmodium falciparum ortholog aa 875-1232, GST fusion)",
    "RBNS R-value": 1.37
  },
  {
    "sequence_record": "AUUUGA",
    "system_name": "PfIESI-1 RRM domain (Plasmodium falciparum ortholog aa 875-1232, GST fusion)",
    "RBNS R-value": 1.45
  },
  {
    "sequence_record": "CGAUUA",
    "system_name": "PfIESI-1 RRM domain (Plasmodium falciparum ortholog aa 875-1232, GST fusion)",
    "RBNS R-value": 1.05
  },
  {
    "sequence_record": "CGAUCC",
    "system_name": "PfIESI-1 RRM domain (Plasmodium falciparum ortholog aa 875-1232, GST fusion)",
    "RBNS R-value": 1.08
  },
  {
    "sequence_record": "AUUUGG",
    "system_name": "PfIESI-1 RRM domain (Plasmodium falciparum ortholog aa 875-1232, GST fusion)",
    "RBNS R-value": 1.1
  },
  {
    "sequence_record": "UGAUUG",
    "system_name": "PfIESI-1 RRM domain (Plasmodium falciparum ortholog aa 875-1232, GST fusion)",
    "RBNS R-value": 2.38
  },
  {
    "sequence_record": "GAUAGA",
    "system_name": "PfIESI-1 RRM domain (Plasmodium falciparum ortholog aa 875-1232, GST fusion)",
    "RBNS R-value": 1.21
  },
  {
    "sequence_record": "GAUAGC",
    "system_name": "PfIESI-1 RRM domain (Plasmodium falciparum ortholog aa 875-1232, GST fusion)",
    "RBNS R-value": 1.44
  },
  {
    "sequence_record": "CUUUGA",
    "system_name": "PfIESI-1 RRM domain (Plasmodium falciparum ortholog aa 875-1232, GST fusion)",
    "RBNS R-value": 1.35
  },
  {
    "sequence_record": "UUUUGA",
    "system_name": "PfIESI-1 RRM domain (Plasmodium falciparum ortholog aa 875-1232, GST fusion)",
    "RBNS R-value": 1.53
  }
]

Challenge: Provide measured RBNS R-value value, entry: UGAUUA
Response given: 2.21

Challenge: Given the sequence AUGAAU , write its reported RBNS R-value.
Response given: 1.08

Challenge: Please supply the value of reported RBNS R-value for the item GGGAUG
Response given: 1.12

Challenge: Complete the entry with RBNS R-value for UUUUGC
Response given: 1.06
